For each record, write down the corresponding IC50.
# assayed-system: Sodium-dependent dopamine transporter (Homo sapiens)
# Sequence (Q01959 whole entry): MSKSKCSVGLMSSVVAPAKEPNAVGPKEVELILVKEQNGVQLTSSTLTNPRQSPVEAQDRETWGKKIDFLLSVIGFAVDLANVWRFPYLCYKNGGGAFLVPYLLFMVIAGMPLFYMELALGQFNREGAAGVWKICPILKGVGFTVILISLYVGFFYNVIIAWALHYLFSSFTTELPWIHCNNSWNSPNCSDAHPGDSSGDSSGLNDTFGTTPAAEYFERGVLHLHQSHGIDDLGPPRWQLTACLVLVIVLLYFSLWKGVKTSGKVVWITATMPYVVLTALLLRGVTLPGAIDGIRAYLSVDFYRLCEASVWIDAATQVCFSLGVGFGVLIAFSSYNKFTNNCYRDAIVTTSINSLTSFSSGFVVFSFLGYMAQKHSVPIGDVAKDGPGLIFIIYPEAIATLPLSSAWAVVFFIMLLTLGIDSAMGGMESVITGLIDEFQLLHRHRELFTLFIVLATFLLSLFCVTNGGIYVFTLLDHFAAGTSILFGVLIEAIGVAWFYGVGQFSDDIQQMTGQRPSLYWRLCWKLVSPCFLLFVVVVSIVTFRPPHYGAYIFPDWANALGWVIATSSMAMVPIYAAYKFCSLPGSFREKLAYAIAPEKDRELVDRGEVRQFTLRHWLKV
# assay-summary: DRUGMATRIX: Dopamine Transporter radioligand binding (ligand: [125I] RTI-55)
# Type: cell membranes, CHO-K1, Membrane
# test-context: Not Active = under 50% inhibition at 10 µM; read-out: IC50

// worked examples, IC50 included
compound | reading
COc1ccccc1OCCNCC(O)COc1cccc2[nH]c3ccccc3c12 (stereo not drawn) | 0.845 µM
CC(N)Cc1c[nH]c2ccc(OCc3cccs3)cc12 (stereo not drawn) | 2.68 µM
c1ccc2c(c1)Nc1ccccc1S2 | 18.6 µM
CC(C)(c1ccc(O)cc1)c1ccc(O)cc1 | 19 µM
c1ccc2sc(SSc3nc4ccccc4s3)nc2c1 [BENZOTHIAZYL DISULFIDE] | 0.245 µM

Here are 3 compounds. What values of IC50 were reported for them?
1. CN(CCOc1ccc(C[C@H](Nc2ccccc2C(=O)c2ccccc2)C(=O)O)cc1)c1ccccn1
2. Clc1cc(Cl)c(OCC#CI)cc1Cl
3. CCN(CC)C(=S)SSC(=S)N(CC)CC

A.
13.6 µM
1.97 µM
4.64 µM

====

# assayed-system: Interstitial collagenase (Homo sapiens, UniProt P03956);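 note: MMP-1 enzyme inhibition assay using a peptide substrate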; note: in other assays of this panel Not Active means under 50% inhibition at 10 µM
# Sequence (P03956 whole entry): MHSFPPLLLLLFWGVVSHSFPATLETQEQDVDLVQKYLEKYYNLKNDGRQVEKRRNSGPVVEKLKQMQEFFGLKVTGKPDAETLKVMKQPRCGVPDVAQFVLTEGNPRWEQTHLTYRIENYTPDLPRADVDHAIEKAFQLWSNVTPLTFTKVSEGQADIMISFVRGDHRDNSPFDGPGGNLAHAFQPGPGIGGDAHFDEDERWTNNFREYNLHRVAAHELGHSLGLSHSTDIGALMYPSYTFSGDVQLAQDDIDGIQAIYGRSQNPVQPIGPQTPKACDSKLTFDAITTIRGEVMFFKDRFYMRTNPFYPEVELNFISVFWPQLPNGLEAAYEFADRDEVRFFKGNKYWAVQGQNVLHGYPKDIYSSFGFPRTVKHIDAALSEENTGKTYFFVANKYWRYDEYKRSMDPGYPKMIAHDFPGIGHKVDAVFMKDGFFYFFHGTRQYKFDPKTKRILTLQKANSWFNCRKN
# assay-summary: biochemical
# Format: tissue-based, Rheumatoid synovial fibroblasts
property-name: IC50

// worked examples, IC50 included
compound | assayed-system | IC50
Cc1cn([C@H]2C=C[C@@H](CO)O2)c(=O)[nH]c1=O | Interstitial collagenase (Homo sapiens, UniProt P03956) | Not Active
Cc1ccnc(NS(=O)(=O)c2ccc(N)cc2)n1 | Interstitial collagenase (Homo sapiens, UniProt P03956) | Not Active
CC(Cl)(Cl)Cl | Interstitial collagenase (Homo sapiens, UniProt P03956) | Not Active
CN1C(=O)OC(C)(C)C1=O | Interstitial collagenase (Homo sapiens, UniProt P03956) | Not Active
c1ccc(Cn2ccnc2)cc1 | Interstitial collagenase (Homo sapiens, UniProt P03956) | Not Active

Here are 4 compounds. What values of IC50 were reported for them?
1. C[N+]1(C)[C@@H]2C[C@@H](OC(=O)[C@H](CO)c3ccccc3)C[C@H]1[C@@H]1O[C@@H]12.[Br-] [METHSCOPOLAMINE BROMIDE]
2. O=C(OC[C@H]1O[C@@H](OC(=O)c2cc(O)c(O)c(OC(=O)c3cc(O)c(O)c(O)c3)c2)[C@H](OC(=O)c2cc(O)c(O)c(OC(=O)c3cc(O)c(O)c(O)c3)c2)[C@@H](OC(=O)c2cc(O)c(O)c(OC(=O)c3cc(O)c(O)c(O)c3)c2)[C@@H]1OC(=O)c1cc(O)c(O)c(OC(=O)c2cc(O)c(O)c(O)c2)c1)c1cc(O)c(O)c(OC(=O)c2cc(O)c(O)c(O)c2)c1
3. C[C@H](C(=O)O)c1ccc2oc(-c3ccc(F)cc3)nc2c1
4. C#C[C@]1(O)CC[C@H]2[C@@H]3CCC4=CC(=O)CC[C@@H]4[C@H]3CC[C@@]21C

A.
["Not Active", "Not Active", "Not Active", "Not Active"]

Here are 5 compounds. What values of IC50 were reported for them?
1. CC(=O)O[C@]1(C(C)=O)CC[C@H]2[C@@H]3C[C@H](C)C4=CC(=O)CC[C@]4(C)[C@H]3CC[C@@]21C [MEDROXYPROGESTERONE ACETATE]
2. CO[C@H]1O[C@@H]2O[C@@]3(C)CC[C@H]4[C@H](C)CC[C@@H]([C@H]1C)[C@@]24OO3
3. C=CCN1CC[C@]23c4c5ccc(O)c4O[C@H]2/C(=N/N=C2\CC[C@@]4(O)[C@H]6Cc7ccc(O)c8c7[C@@]4(CCN6CC=C)[C@H]2O8)CC[C@@]3(O)[C@H]1C5
4. CC(N)Cc1c[nH]c2ccc(OCc3cccs3)cc12 (centres undefined)
5. CN(Cc1cc(Br)cc(Br)c1N)C1CCCCC1

A.
Not Active
Not Active
Not Active
Not Active
Not Active

====

# assayed-system: Alpha-1D adrenergic receptor (Homo sapiens, UniProt P25100); note: in other assays of this panel Not Active means under 50% inhibition at 10 µM
# Sequence (P25100 whole entry): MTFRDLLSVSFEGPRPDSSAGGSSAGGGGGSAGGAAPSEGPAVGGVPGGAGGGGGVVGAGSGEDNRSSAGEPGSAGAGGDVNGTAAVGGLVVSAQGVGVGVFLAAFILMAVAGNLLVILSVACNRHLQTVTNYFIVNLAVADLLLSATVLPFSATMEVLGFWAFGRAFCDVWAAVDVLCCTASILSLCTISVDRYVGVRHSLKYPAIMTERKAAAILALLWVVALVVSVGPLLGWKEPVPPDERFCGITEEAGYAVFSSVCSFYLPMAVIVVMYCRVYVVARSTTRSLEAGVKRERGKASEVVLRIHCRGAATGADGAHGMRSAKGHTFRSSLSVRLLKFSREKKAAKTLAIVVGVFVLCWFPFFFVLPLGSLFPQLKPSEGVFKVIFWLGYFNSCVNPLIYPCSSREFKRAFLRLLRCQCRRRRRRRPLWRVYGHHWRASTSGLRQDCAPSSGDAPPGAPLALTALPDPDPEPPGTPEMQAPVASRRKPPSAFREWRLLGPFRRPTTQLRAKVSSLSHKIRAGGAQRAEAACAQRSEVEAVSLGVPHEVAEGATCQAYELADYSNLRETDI
# Format: cell membranes, HEK293, Membrane
# test-context: read-out: IC50
// classify: if (IC50 < 400 nM) Yes else No

Some entries whose results are on file:
molecule | assayed-system | class
CN(C)CCC=C1c2ccccc2COc2ccccc21 [DOXEPIN] | Alpha-1D adrenergic receptor (Homo sapiens, UniProt P25100) | Yes
CC(C)Cn1cnc2c(N)nc3ccccc3c21 | Alpha-1D adrenergic receptor (Homo sapiens, UniProt P25100) | No
CN1C[C@H](CNC(=O)OCc2ccccc2)C[C@@H]2c3cccc4c3c(cn4C)C[C@H]21 | Alpha-1D adrenergic receptor (Homo sapiens, UniProt P25100) | Yes
CNC[C@H](O)c1ccc(O)c(O)c1 [EPINEPHRINE] | Alpha-1D adrenergic receptor (Homo sapiens, UniProt P25100) | No
CC(CN1c2ccccc2Sc2ccccc21)N(C)C (stereo not drawn) | Alpha-1D adrenergic receptor (Homo sapiens, UniProt P25100) | Yes

Q. Given the entry COc1ccccc1OCCNCC(O)COc1cccc2[nH]c3ccccc3c12 (stereo not drawn) , would its reported IC50 be below 400 nM?
A. Yes

Q. Given the entry CCN(CCO)CCCC(C)Nc1ccnc2cc(Cl)ccc12 (stereo not drawn) [HYDROXYCHLOROQUINE] , would its reported IC50 be below 400 nM?
A. No

====

# assayed-system: 5-hydroxytryptamine receptor 6 (Homo sapiens); note: in other assays of this panel Not Active means under 50% inhibition at 10 µM
# Sequence (P50406 whole entry): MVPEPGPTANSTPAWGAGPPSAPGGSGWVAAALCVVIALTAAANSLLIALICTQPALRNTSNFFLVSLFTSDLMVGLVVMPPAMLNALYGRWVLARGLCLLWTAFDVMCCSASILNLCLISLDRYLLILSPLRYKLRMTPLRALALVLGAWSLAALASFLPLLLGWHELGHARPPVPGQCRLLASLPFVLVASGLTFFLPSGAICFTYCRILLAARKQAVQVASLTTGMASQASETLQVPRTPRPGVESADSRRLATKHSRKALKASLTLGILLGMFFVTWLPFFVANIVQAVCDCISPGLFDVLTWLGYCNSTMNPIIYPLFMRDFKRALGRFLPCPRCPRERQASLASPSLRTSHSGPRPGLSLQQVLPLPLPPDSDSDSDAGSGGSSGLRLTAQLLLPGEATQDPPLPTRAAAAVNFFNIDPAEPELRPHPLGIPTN
# Assay type: cell membranes, HeLa, Membrane
# test-context: hela

smiles-string | IC50
Cc1ccnc(NS(=O)(=O)c2ccc(N)cc2)n1 | Not Active
OC[C@H]1O[C@@H]2O[C@H]3[C@H](O)[C@@H](O)[C@@H](O[C@H]4[C@H](O)[C@@H](O)[C@@H](O[C@H]5[C@H](O)[C@@H](O)[C@@H](O[C@H]6[C@H](O)[C@@H](O)[C@@H](O[C@H]7[C@H](O)[C@@H](O)[C@@H](O[C@H]8[C@H](O)[C@@H](O)[C@@H](O[C@H]1[C@H](O)[C@H]2O)O[C@@H]8CO)O[C@@H]7CO)O[C@@H]6CO)O[C@@H]5CO)O[C@@H]4CO)O[C@@H]3CO | Not Active

====

# assayed-system: Tyrosine-protein kinase Fyn (Homo sapiens, UniProt P06241);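 note: enzymatic inhibition of Fyn kinase activity measured with Poly(Glu:Tyr) as the phosphorylation substrate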; note: in other assays of this panel Not Active means under 50% inhibition at 10 µM
# Sequence (P06241 whole entry): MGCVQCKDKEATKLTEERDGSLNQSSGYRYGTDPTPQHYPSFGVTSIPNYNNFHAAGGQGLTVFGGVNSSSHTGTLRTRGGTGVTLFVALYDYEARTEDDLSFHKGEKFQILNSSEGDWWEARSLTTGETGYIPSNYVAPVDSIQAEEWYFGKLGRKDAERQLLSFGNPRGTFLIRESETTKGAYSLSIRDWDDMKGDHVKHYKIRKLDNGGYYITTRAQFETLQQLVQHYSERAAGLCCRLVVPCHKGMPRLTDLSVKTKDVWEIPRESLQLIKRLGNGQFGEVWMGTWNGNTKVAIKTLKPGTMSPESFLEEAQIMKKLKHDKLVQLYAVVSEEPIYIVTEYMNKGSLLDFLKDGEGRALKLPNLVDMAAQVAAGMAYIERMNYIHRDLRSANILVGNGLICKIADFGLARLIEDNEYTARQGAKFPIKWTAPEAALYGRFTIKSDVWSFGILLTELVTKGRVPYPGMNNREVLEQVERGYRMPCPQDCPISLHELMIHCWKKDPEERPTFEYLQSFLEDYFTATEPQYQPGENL
# assay-summary: biochemical
# Format: cell-based, Insect cells
# test-context: read-out: IC50
property-name: pIC50
Answers are plain numbers, as −log10 of the molar value.

smiles-string | reading
O=C(OC[C@H]1O[C@@H](OC(=O)c2cc(O)c(O)c(OC(=O)c3cc(O)c(O)c(O)c3)c2)[C@H](OC(=O)c2cc(O)c(O)c(OC(=O)c3cc(O)c(O)c(O)c3)c2)[C@@H](OC(=O)c2cc(O)c(O)c(OC(=O)c3cc(O)c(O)c(O)c3)c2)[C@@H]1OC(=O)c1cc(O)c(O)c(OC(=O)c2cc(O)c(O)c(O)c2)c1)c1cc(O)c(O)c(OC(=O)c2cc(O)c(O)c(O)c2)c1 | 7.66
CC#C[C@]1(O)CC[C@H]2[C@@H]3CCC4=CC(=O)CCC4=C3[C@@H](c3ccc(N(C)C)cc3)C[C@@]21C | 4.67

Proceed to the following item.
Q. State, in one line, measured pIC50 of CC[C@H](C)[C@@H](CO[C@@H](Cc1ccccc1)C(=O)N[C@@H](CCS(C)(=O)=O)C(=O)OC(C)C)NC[C@@H](N)CS
A. 6.09
